System: HT29 colon
ASSAY SUMMARY: NCI-60 one-dose screen, 48 h
TEST SETTINGS: 10 µM unless noted
Description: Growth inhibition of the HT29 human tumor cell line is measured as a screen for anti-cancer activity. Cells are grown in 96 well plates and exposed to the test compound for 48 hours. Compounds are tested at a single concentration, which is 10^-5 M for most compounds. The reported endpoint is percent growth (GI% or GIPRCNT), where numbers from 0 - 100% represent growth inhibition, and numbers from -100% - 0 represent cell death. For example, a value of 40 represents 60% growth inhibition. […]
The panel holds about 83,000 compounds, 20% with a hit somewhere; the sample as a whole holds those more often. Calls of active or inactive are those of the source. The calls were made as follows: active = growth percent below 10; inactive = the rest.
Classes used: active, inactive

>  <SMILES STRUCTURE>
CSc1ccc2c3c(n(CCCn4ccnc4)c(=O)c2c1)-c1ccccc1C3=O

>  <TESTED SYSTEM>
HT29 colon

>  <LABEL VALUE>
inactive

$$$$
>  <SMILES STRUCTURE>
COc1nc(/C=C\Nc2ccc3c(c2)OCCOCCOCCOCCO3)nc(OC)n1

>  <TESTED SYSTEM>
HT29 colon

>  <LABEL VALUE>
inactive

$$$$
>  <SMILES STRUCTURE>
COc1cc(-c2ccc(-c3ccc(C(=N)N)cc3)s2)cc(OC)c1OC

>  <TESTED SYSTEM>
HT29 colon

>  <LABEL VALUE>
active

$$$$
>  <SMILES STRUCTURE>
Cn1c(=O)c2[nH]c(SC/C(=N/O)c3ccc(Br)cc3)nc2n(C)c1=O

>  <TESTED SYSTEM>
HT29 colon

>  <LABEL VALUE>
inactive

$$$$
>  <SMILES STRUCTURE>
C#COc1cccc(Nc2ncnc3cc(NC(=O)[C@H](C)Cl)ccc23)c1

>  <TESTED SYSTEM>
HT29 colon

>  <LABEL VALUE>
active

$$$$

###

Parameter growth: see the listing below.
Tested on: MDA-MB-231 breast
ASSAY SUMMARY: NCI-60 one-dose screen, 48 h (100 = growth as untreated, 0 = no growth, -100 = all killed)
TEST SETTINGS: 10 µM unless noted
This is part of a sample that, as a whole, favours compounds with a hit. Of some 83,000 tested, about 20% had one in any assay.
PARAMETER MEASURED: growth (%)

>  <MOLECULE>
CN1CCOCCN(C)Cc2ccc3ccc(cc3c2)CN(C)CCOCCN(C)Cc2ccc3ccc(cc3c2)C1

>  <PARAMETER MEASURED>
growth

>  <QUANTITY UNIT>
%

>  <REPORTED VALUE>
70.8

$$$$
>  <MOLECULE>
COc1ccc(C2[C@@H](c3ccccc3)C(=O)N2c2cc(OC)c(OC)c(OC)c2)cc1F (some centres undefined)

>  <PARAMETER MEASURED>
growth

>  <QUANTITY UNIT>
%

>  <REPORTED VALUE>
32.3

$$$$
>  <MOLECULE>
COc1cc2ncnc(Nc3ccc(S(=O)(=O)Nc4nccs4)cc3)c2cc1OCCCN1CCCC1

>  <PARAMETER MEASURED>
growth

>  <QUANTITY UNIT>
%

>  <REPORTED VALUE>
104

$$$$
>  <MOLECULE>
Cn1cc(-c2csc(-c3cn(C)c4ccccc34)n2)c2cnccc21

>  <PARAMETER MEASURED>
growth

>  <QUANTITY UNIT>
%

>  <REPORTED VALUE>
-17.7

$$$$
>  <MOLECULE>
Clc1cccc(C2Cc3cnccc3-c3[nH]c4ccncc4c32)c1 (centres undefined)

>  <PARAMETER MEASURED>
growth

>  <QUANTITY UNIT>
%

>  <REPORTED VALUE>
44.8

$$$$
>  <MOLECULE>
CN(C)CCCn1c2c(c3ccncc3c1=O)C(=O)c1ccccc1-2

>  <PARAMETER MEASURED>
growth

>  <QUANTITY UNIT>
%

>  <REPORTED VALUE>
8.66

$$$$
>  <MOLECULE>
Cc1ccc(C(=O)c2ccc(CC(=O)N/N=C/c3cccc(O)c3O)n2C)cc1

>  <PARAMETER MEASURED>
growth

>  <QUANTITY UNIT>
%

>  <REPORTED VALUE>
45.3

$$$$
>  <MOLECULE>
CCN(CC)c1ccc(-c2cc(-c3cc(OC)c(OC)c(OC)c3)nc(N3CCC(O)CC3)c2C#N)cc1

>  <PARAMETER MEASURED>
growth

>  <QUANTITY UNIT>
%

>  <REPORTED VALUE>
-58.7

$$$$
>  <MOLECULE>
COc1cc(/C=C2\C(=O)N(CCCOc3cc(O)c4c(=O)cc(-c5ccccc5)oc4c3)c3ccccc32)cc(OC)c1O

>  <PARAMETER MEASURED>
growth

>  <QUANTITY UNIT>
%

>  <REPORTED VALUE>
97.5

$$$$
>  <MOLECULE>
CC1=C2CC/C(C)=C/CC[C@]3(C)O[C@H]3CC/C(C)=C/[C@H]2OC1

>  <PARAMETER MEASURED>
growth

>  <QUANTITY UNIT>
%

>  <REPORTED VALUE>
96.5

$$$$
>  <MOLECULE>
O=C(NCCNC(c1ccccc1)C(NCCNC(=O)c1ccccc1)c1ccccc1)c1ccccc1 (centres undefined)

>  <PARAMETER MEASURED>
growth

>  <QUANTITY UNIT>
%

>  <REPORTED VALUE>
98

$$$$
>  <MOLECULE>
O=S(=O)(N=C1C(Cl)=C(Cl)C(=NS(=O)(=O)c2ccccc2)C(Cl)=C1Cl)c1ccccc1

>  <PARAMETER MEASURED>
growth

>  <QUANTITY UNIT>
%

>  <REPORTED VALUE>
98.8

$$$$
>  <MOLECULE>
O=c1oc2c(cc1-c1ccccc1)c[n+]([O-])c1ccccc21

>  <PARAMETER MEASURED>
growth

>  <QUANTITY UNIT>
%

>  <REPORTED VALUE>
91.8

$$$$
>  <MOLECULE>
CCCC(O)Cn1ncc(C(=O)OCC)c1NC(=O)NCc1cccc(C(F)(F)F)c1 (centres undefined)

>  <PARAMETER MEASURED>
growth

>  <QUANTITY UNIT>
%

>  <REPORTED VALUE>
95.1

$$$$
>  <MOLECULE>
COc1cccc(-c2cn3nc(-c4cn(C)c5ccccc45)sc3n2)c1

>  <PARAMETER MEASURED>
growth

>  <QUANTITY UNIT>
%

>  <REPORTED VALUE>
85.6

$$$$
>  <MOLECULE>
Cc1ccccc1N1CCN(C(=S)c2ccccc2)CC1

>  <PARAMETER MEASURED>
growth

>  <QUANTITY UNIT>
%

>  <REPORTED VALUE>
93.9

$$$$
>  <MOLECULE>
C=C(C)[C@@H]1CC[C@]2(C(=O)N3CCN(C)CC3)CC[C@]3(C)[C@H](CC[C@@H]4[C@@](C)(CCC(=O)O)[C@H](C(=C)C)CC[C@]43C)[C@@H]12

>  <PARAMETER MEASURED>
growth

>  <QUANTITY UNIT>
%

>  <REPORTED VALUE>
91.2

$$$$
>  <MOLECULE>
O=C1/C(=C/c2cccc(Br)c2)COc2ccc(O)cc21

>  <PARAMETER MEASURED>
growth

>  <QUANTITY UNIT>
%

>  <REPORTED VALUE>
27.9

$$$$
>  <MOLECULE>
N=C(N)c1ccc(-c2ccc(-c3cc(Cl)cc(Cl)c3)s2)s1

>  <PARAMETER MEASURED>
growth

>  <QUANTITY UNIT>
%

>  <REPORTED VALUE>
-55.1

$$$$
